Cited source for all entries: patent US12398154B2

I'd be grateful if you could share measured IC50 for these entries.
- TARGET ENTITY: KRas G12D (Homo sapiens, UniProt P01116, G12D);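 also: TR-FRET displacement binding assay on KRas, read after a one-hour incubation at room temperature, IC50 fitted from percent-of-control values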
- Sequence (P01116 1-169 isoform P01116-2 G12D): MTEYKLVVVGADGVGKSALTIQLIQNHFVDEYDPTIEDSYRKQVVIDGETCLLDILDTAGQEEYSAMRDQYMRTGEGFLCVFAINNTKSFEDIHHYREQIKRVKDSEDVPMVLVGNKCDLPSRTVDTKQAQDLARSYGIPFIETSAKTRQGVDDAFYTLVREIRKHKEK
- PROTOCOL: biochemical

> print(dat)
                                   compound  value.reported
1  C#Cc1c(F)ccc2cc(O)cc(-c3ncc4c(N5CCCC6(CNC6=O)C5)nc(OC[C@@]56CCCN5C[C@H](F)C6)nc4c3F)c12 (stereo partly drawn)          ≤ 2 nM
2  C#Cc1c(F)ccc2cc(O)cc(-c3ncc4c(N5CCOCC(CO)C5)nc(OC[C@@]56CCCN5C[C@H](F)C6)nc4c3F)c12 (stereo partly drawn)          ≤ 2 nM

Looking up CCc1c(F)ccc2cc(O)cc(-c3ncc4c(N5CCCC6(CNS(=O)(=O)N6)C5)nc(OC[C@@]56CCCN5C[C@H](F)C6)nc4c3F)c12 (stereo partly drawn) , I found its IC50 recorded as ≤ 2 nM
